meta.source: patent US20110009283A1

# assay system: Mus BK (big conductance calcium-activated K channel) (Mus), Q08460
# Sequence (Q08460 whole entry): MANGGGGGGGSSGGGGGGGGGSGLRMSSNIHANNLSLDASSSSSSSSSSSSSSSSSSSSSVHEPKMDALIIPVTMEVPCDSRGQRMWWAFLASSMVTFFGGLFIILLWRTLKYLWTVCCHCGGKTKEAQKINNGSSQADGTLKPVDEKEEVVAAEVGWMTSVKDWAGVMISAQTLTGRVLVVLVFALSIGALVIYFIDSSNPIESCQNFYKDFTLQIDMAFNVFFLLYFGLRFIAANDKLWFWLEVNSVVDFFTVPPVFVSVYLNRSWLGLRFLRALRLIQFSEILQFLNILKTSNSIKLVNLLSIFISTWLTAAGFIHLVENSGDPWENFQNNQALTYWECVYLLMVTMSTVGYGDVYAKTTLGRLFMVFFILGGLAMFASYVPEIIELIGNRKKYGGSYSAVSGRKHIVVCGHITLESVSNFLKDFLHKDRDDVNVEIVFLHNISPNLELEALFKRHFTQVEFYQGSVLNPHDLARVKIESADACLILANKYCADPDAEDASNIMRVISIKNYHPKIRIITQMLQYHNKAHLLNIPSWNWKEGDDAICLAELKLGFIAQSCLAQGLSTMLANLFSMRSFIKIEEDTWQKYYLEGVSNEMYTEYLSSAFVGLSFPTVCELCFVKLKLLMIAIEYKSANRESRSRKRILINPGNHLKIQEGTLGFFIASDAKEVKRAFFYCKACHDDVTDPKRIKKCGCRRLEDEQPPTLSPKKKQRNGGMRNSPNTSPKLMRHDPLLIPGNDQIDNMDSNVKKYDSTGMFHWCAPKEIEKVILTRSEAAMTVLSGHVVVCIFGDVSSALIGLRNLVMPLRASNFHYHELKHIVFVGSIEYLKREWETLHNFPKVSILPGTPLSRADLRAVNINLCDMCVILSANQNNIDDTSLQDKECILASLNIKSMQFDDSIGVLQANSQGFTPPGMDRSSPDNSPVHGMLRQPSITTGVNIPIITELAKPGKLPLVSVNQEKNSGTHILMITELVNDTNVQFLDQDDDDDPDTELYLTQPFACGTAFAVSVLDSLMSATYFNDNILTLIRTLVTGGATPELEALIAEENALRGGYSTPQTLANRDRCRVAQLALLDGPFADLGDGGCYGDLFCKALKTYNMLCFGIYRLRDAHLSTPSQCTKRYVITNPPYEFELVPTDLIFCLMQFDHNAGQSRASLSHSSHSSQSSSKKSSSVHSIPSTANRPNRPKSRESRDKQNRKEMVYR
Listing of recorded Ki by entry.
Kindly answer with a numeric value in nM, unit omitted.

binder	observation type	result unit	result value
GVEINVKCSGSPQCLKPCKDAGMRFGKCMNRKCHCTPK (modifications not checked) [Kaliotoxin-1 (KTX)]	Ki	nM	1.6

Input ZFTNVSCTTSKECWSVCQRLHNTSRGKCMNKKCRCYS (modifications not checked) [Charybdotoxin (CTX)] , output reported Ki.
5
